# STUDY SYSTEM: T1, human Trop-2-His (human, UniProt P09758 27-274, limits assumed)
# T1 construct: by analogy with the macaque construct it is probably the extracellular domain with a His tag; also called Trop-2-His protein
# T1 sequence: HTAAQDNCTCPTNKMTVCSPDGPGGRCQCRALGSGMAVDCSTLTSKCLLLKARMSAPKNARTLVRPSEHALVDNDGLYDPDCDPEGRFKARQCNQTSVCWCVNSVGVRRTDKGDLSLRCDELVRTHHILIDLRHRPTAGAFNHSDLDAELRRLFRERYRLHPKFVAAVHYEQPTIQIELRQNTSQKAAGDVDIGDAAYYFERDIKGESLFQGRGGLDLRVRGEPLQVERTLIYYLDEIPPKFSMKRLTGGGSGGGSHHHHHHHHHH
# ASSAY PROCEDURE: SPR (Biacore 8K), antibody captured, Trop-2-His as analyte
METRIC NAME: kon (M⁻¹ s⁻¹)
Answer with a number only, understood to be in M⁻¹ s⁻¹.

{"columns": ["BINDER", "kon, M⁻¹ s⁻¹"],
 "data": [
  ["hz-Ab21-2.1 (antibody, human IgG1, kappa, V domains shown, Humanized antibody) VH: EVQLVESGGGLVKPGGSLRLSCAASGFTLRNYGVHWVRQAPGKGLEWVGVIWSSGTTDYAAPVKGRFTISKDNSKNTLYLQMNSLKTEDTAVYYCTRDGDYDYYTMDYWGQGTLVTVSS VL: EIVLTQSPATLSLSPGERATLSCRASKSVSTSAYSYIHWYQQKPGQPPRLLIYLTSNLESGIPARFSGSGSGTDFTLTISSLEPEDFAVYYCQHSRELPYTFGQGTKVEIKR", 404000]
]}

Given item hz-Ab35-2.2 (antibody, human IgG1, kappa, V domains shown, Humanized antibody) VH: QVQLVQSGAEVKKPGASVKVSCKASGYTFTSSDINWVRQRPGQGLEWMGWIYPRDGSKKYNEKFKGRVTMTVDTSTSTVYMELSSLRSEDTAVYYCARRFATVVSNYGLDPWGQGTLVTVSS VL: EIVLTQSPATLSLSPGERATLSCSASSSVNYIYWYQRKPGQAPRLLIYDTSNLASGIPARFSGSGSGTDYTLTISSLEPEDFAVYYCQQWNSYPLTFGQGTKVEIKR , the value recorded as its kon is 405000
